- Read-out: matrix metalloproteinase-10 (MMP10), MMP10 (gene 4319)
- PROCEDURE_TEXT: LTEA_HepaRG_MMP10: Life Technologies and Expression Analysis (LTEA) Assay for matrix metalloproteinase-10 (MMP10) using HepaRG (AID 2283517)
- TEST_CONDITIONS: mRNA level, 48 h; actives raise or lower the signal
Activity calls are given as the source filed them. Rule for the calls: active = hit-call score of the fitted dose curve at least 0.9, where 1 is the maximum; inactive = score below 0.9.
Return exactly one item of active, inactive

Check out these entries, answers already filled in.
What call does the record list for O=c1c(-c2ccc(O)cc2)coc2cc(O)cc(O)c12 ? inactive

Now give it for CCN(Cc1cccc(S(=O)(=O)O)c1)c1ccc(C(=C2C=CC(=[N+](CC)Cc3cccc(S(=O)(=O)O)c3)C=C2)c2ccccc2S(=O)(=O)[O-])cc1 too. inactive

Now give it for O=C(Nc1ccc(Cl)cc1)Nc1ccc(Cl)c(Cl)c1 too. active

Now give it for CCO[Si](CCCNC(N)=O)(OCC)OCC too. inactive

With those in mind, consider the next molecule.
What call does the record list for Cc1occc1C(=O)Nc1ccc(C(=O)N2CCC(F)(F)/C(=C\C(=O)N3CCC(N4CCCCC4)CC3)c3ccccc32)cc1 ? inactive

---

- Read-out: Matrix Metallopeptidase 9 (MMP9), MMP9 (gene 4318)
- PROCEDURE_TEXT: BSK_KF3CT_MMP9: BioMAP Diversity Plus: KF3CT Assay for Matrix Metallopeptidase 9 (MMP9) Biomarker Activity (AID 2283074)
- TEST_CONDITIONS: primary human keratinocytes with fibroblasts; actives raise or lower the signal
The source made the active and inactive calls. The calls were made as follows: active = hit-call score of the fitted dose curve at least 0.9, where 1 is the maximum; inactive = score below 0.9.
Return exactly one item of active, inactive

What call does the record list for CC(C)(C)c1cc(/C=C2\SC(N)=NC2=O)cc(C(C)(C)C)c1O ? active

Now give it for CCCCCCCCCC(=O)O too. inactive

Now give it for COc1cccc([C@H](O)C2CCN(CCc3ccc(F)cc3)CC2)c1OC too. inactive

Now give it for Clc1ccccc1C(c1ccccc1)(c1ccccc1)n1ccnc1 too. active

Now give it for O=C(Nc1ccc(Cl)cc1)Nc1ccc(Cl)c(Cl)c1 too. active

Now give it for CN1C(=O)N(c2ccccc2Br)Cc2cnc(Nc3ccc4c(c3)OCC(CO)O4)nc21 (centres undefined) too. active

Now give it for CCCCCCCCOc1ccc(C(=O)c2ccccc2)c(O)c1 too. inactive

Now give it for CN(C[C@@H](CC[N+]12CCC(C3CCCCC3)(CC1)CC2)c1ccc(Cl)c(Cl)c1)C(=O)c1cc(C(F)(F)F)cc(C(F)(F)F)c1 too. active

Now give it for O=C(O)c1ccccc1-n1cc(C(=O)O)c(=O)c2cc(Nc3c(F)cc(F)cc3Cl)c(Cl)cc21 too. inactive

---

- EXPERIMENTAL_TARGET: human Casein Kinase 1-delta (CK1D), CSNK1D (gene 1453) (UniProt P48730)
- Sequence (P48730 whole entry, looked up): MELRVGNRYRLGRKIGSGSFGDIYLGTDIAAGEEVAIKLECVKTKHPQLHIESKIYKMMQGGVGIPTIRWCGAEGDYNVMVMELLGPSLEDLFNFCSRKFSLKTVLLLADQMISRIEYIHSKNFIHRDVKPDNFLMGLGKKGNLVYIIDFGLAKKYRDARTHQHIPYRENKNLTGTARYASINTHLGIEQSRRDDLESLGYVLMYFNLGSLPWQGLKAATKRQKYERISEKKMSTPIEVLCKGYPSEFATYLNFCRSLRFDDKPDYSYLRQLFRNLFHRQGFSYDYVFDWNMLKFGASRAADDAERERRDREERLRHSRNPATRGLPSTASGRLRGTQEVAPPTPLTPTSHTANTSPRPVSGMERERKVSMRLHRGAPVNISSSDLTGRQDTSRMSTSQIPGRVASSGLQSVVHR
- PROCEDURE_TEXT: NVS_ENZ_hCK1D: NovaScreen (NVS) Enzymatic Assay for human Casein Kinase 1-delta (CK1D) (AID 2283148)
Records with an inconclusive call do not appear. Active and inactive are the calls of the source. The calls were made as follows: active = hit-call score of the fitted dose curve at least 0.9, where 1 is the maximum; inconclusive = response in the unintended direction; inactive = score below 0.9.
MEASURED_QUANTITY: outcome

Which value of outcome has been reported for O=C(Nc1ccc(Cl)cc1)Nc1ccc(Cl)c(Cl)c1 in the records? inactive

Now give it for O=C(O)Cc1cc(I)c(Oc2ccc(O)c(I)c2)c(I)c1 too. inactive

Now give it for c1ccc2ccccc2c1 too. inactive

Now give it for CC/C(=C(/CC)c1ccc(O)cc1)c1ccc(O)cc1 too. inactive

Here's the next entry for you.
Which value of outcome has been reported for CCN(Cc1cccc(S(=O)(=O)O)c1)c1ccc(C(=C2C=CC(=[N+](CC)Cc3cccc(S(=O)(=O)O)c3)C=C2)c2ccccc2S(=O)(=O)[O-])cc1 in the records? inactive

---

- EXPERIMENTAL_TARGET: Estrogen receptor (Homo sapiens) + Estrogen receptor beta (Homo sapiens) (UniProt P03372+Q92731)
- Sequence (P03372 whole entry, looked up): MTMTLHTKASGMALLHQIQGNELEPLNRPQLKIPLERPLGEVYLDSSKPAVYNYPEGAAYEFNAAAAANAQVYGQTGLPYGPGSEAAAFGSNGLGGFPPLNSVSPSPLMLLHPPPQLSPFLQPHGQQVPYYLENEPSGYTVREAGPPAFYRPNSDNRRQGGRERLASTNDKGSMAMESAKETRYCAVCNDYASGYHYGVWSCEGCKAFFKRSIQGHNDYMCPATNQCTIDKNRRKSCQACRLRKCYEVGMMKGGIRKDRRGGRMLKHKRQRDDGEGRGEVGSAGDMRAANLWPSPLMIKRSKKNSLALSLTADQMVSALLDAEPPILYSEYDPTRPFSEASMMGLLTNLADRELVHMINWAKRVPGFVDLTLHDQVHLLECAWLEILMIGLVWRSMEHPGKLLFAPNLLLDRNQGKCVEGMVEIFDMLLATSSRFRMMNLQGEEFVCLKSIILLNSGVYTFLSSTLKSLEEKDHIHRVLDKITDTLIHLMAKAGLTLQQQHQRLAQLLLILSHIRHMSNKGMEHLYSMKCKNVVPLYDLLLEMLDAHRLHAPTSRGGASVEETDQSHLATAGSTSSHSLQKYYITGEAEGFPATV
- Sequence (Q92731 whole entry, looked up): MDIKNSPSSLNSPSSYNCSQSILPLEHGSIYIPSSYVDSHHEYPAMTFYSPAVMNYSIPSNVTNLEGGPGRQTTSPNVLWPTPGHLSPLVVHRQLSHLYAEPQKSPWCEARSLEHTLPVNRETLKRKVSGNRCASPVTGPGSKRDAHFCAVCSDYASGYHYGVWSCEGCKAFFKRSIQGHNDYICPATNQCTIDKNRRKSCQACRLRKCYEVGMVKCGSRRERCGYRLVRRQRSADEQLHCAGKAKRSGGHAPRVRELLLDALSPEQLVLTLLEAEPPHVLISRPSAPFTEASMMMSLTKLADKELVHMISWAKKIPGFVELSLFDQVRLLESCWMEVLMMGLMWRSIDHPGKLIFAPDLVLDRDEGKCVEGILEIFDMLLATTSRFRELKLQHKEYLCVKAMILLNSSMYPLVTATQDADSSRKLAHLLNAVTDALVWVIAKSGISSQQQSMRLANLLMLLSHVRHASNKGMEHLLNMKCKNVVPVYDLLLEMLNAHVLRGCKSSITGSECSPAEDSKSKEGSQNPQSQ
- PROCEDURE_TEXT: OT_ER_ERaERb_0480: Odyssey Thera (OT) 8-hour HEK293T Protein-Complementation Assay for Estrogen Receptor-alpha/-beta Heterodimer (AID 2283352)
Results filed as inconclusive are left out. Active and inactive are the calls of the source. How the source made its calls: active means hit-call score of the fitted dose curve at least 0.9, where 1 is the maximum; inconclusive means response in the unintended direction; inactive means score below 0.9.
MEASURED_QUANTITY: AC50

Previously resolved entries follow.
Which value of AC50 has been reported for CCCCCCCCCCCCO in the records? inactive

Now give it for CC[C@H](NC(=O)c1cc(F)ccc1NS(=O)(=O)c1cccc2cccnc12)c1ccccc1 too. inactive

Now give it for Cc1cc(F)ccc1-c1cc(N2CC[C@@H](O)[C@H]2CO)ncc1N(C)C(=O)C(C)(C)c1cc(C(F)(F)F)cc(C(F)(F)F)c1 too. inactive

Now give it for CCCOC(=O)c1cc(O)c(O)c(O)c1 too. 39.8 µM (active)

---
Which value of AC50 has been reported for CC1=CC(=O)/C(=C(/C)O)C(=O)O1 in the records? inactive

Now give it for CCCCCCCCOC(=O)c1cc(O)c(O)c(O)c1 too. 11.9 µM (active)

Now give it for CCO[Si](CCCNC(N)=O)(OCC)OCC too. inactive

Now give it for CN1C(=O)N(c2ccccc2Br)Cc2cnc(Nc3ccc4c(c3)OCC(CO)O4)nc21 (stereo not drawn) too. inactive

---

- PROCEDURE_TEXT: BSK_BE3C_SRB: Viability Assessment in the BioMAP Diversity Plus: BE3C Assay (AID 2283028);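 note: measured 24 h after chemical dosing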
- TEST_CONDITIONS: primary human bronchial epithelial cells
Active and inactive are the calls of the source. Rule for the calls: active = hit-call score of the fitted dose curve at least 0.9, where 1 is the maximum; inactive = score below 0.9.
Return exactly one item of y for active, n for inactive

Check out these entries, answers already filled in.
What call does the record list for OCCO ? n

Now give it for CC[C@H](NC(=O)c1cc(F)ccc1NS(=O)(=O)c1cccc2cccnc12)c1ccccc1 too. n

Now give it for CCO[Si](CCCNC(N)=O)(OCC)OCC too. n

---
What call does the record list for CCCC(=O)OCCC(C)C ? n

Now give it for CCCCCCCCOC(=O)c1cc(O)c(O)c(O)c1 too. y

Now give it for Cc1cc(F)ccc1-c1cc(N2CC[C@@H](O)[C@H]2CO)ncc1N(C)C(=O)C(C)(C)c1cc(C(F)(F)F)cc(C(F)(F)F)c1 too. y

Now give it for COc1cc(C(=O)NC2CCN(C)CC2)ccc1Nc1ncc2c(n1)N(C1CCCC1)CC(F)(F)C(=O)N2C too. y

Now give it for CC(C)(O)c1ccc(CNC(=O)c2cccnc2Oc2ccc3nonc3c2)cc1 too. n

---

- Read-out: Vascular cell adhesion molecule 1 (VCAM1), VCAM1 (gene 7412)
- PROCEDURE_TEXT: BSK_CASM3C_VCAM1: BioMAP Diversity Plus: CASM3C Assay for Vascular cell adhesion molecule 1 (VCAM1) Biomarker Activity (AID 2283055);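 note: VCAM-1 protein level quantified by ELISA on the cells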
- TEST_CONDITIONS: primary human coronary artery smooth muscle cells; actives raise or lower the signal
The source made the active and inactive calls. The calls were made as follows: active = hit-call score of the fitted dose curve at least 0.9, where 1 is the maximum; inactive = score below 0.9.
Return exactly one item of label 1 for active, label 0 for inactive

Check out these entries, answers already filled in.
What call does the record list for CC(C)(C)c1csc(-c2cc3cc(OCc4ccccc4CC(=O)O)ccc3o2)n1 ? label 1

Now give it for CCN(CC)C(=O)c1cc(S(=O)(=O)Cc2ccccc2)c(N2CCC(c3ccccc3)CC2)cc1N(CC)CCN(C)C too. label 0

---
What call does the record list for CCCCCCCCOC(=O)c1cc(O)c(O)c(O)c1 ? label 1

---

- Read-out: UDP glucuronosyltransferase (UGT1A1), UGT1A1 (gene 54658)
- PROCEDURE_TEXT: LTEA_HepaRG_UGT1A1: Life Technologies and Expression Analysis (LTEA) Assay for UDP glucuronosyltransferase (UGT1A1) using HepaRG (AID 2283538)
- TEST_CONDITIONS: mRNA level, 48 h; actives raise or lower the signal
The source made the active and inactive calls. The calls were made as follows: active = hit-call score of the fitted dose curve at least 0.9, where 1 is the maximum; inactive = score below 0.9.
Return exactly one item of T = active, F = inactive

What call does the record list for Cc1cn([C@H]2C[C@H](N=[N+]=[N-])[C@@H](CO)O2)c(=O)[nH]c1=O ? F

---
What call does the record list for Oc1ccc2ccccc2c1 ? F

Now give it for O=c1c(-c2ccc(O)cc2)coc2cc(O)cc(O)c12 too. F

Now give it for O=C(OCCCCCCOC(=O)c1ccccc1)c1ccccc1 too. F

---

- PROCEDURE_TEXT: CCTE_Shafer_MEA_acute_burst_percentage_std: CCTE's Neural Acute Assay for Standard Deviation of Burst Percentage, Shafer Lab (AID 2284018);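 note: fitted in the negative direction so actives lower burst percentage SD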
- Method: CCTE_Shafer_MEA_acute assay is conducted using Axion Biosystems 48 well microelectrode array (MEA) plates and Maestro recording system. Each well of the MEA plate contains a grid of 16 microelectrodes embedded in the culture surface. Electrically active cells, such as neurons, can be cultured over the electrodes, and electrical activity in these cells can be recorded extracellularly. […] The standard deviation of the burst percentages across electrodes is calculated to report a well-level value. […]
Calls of active or inactive are those of the source. Rule for the calls: active = hit-call score of the fitted dose curve at least 0.9, where 1 is the maximum; inactive = score below 0.9.
Return exactly one item of y for active, n for inactive

What call does the record list for OC12N=C(c3ccccc3)SC1Cc1cc(Cl)ccc12 (stereo not drawn) ? y

Now give it for CO[C@H]1/C=C/O[C@@]2(C)Oc3c(C)c(O)c4c(O)c(c(/C=N/N5CCN(C)CC5)c(O)c4c3C2=O)NC(=O)/C(C)=C\C=C\[C@H](C)[C@H](O)[C@@H](C)[C@@H](O)[C@@H](C)[C@H](OC(C)=O)[C@@H]1C too. n

With those in mind, consider the next molecule.
What call does the record list for CCCCCCCCOC(=O)c1cc(O)c(O)c(O)c1 ? y
